Test system: EKVX NSCLC
assay-procedure: NCI tumour cell line growth inhibition, 48 h
Attribute: TGI

[
  {
    "compound": "CC(=O)O[C@H]1C(=O)[C@@]2(C)C(C(OC(=O)c3ccccc3)[C@]3(O)CC(OC(=O)C(O)C(NC(=O)c4ccccc4)c4cccc(Cl)c4)C(C)=C1C3(C)C)[C@]1(OC(C)=O)CO[C@@H]1C[C@@H]2O (stereo partly specified)",
    "TGI": "> 10 µM"
  },
  {
    "compound": "COc1cc(NC(C)CCCN2C(=O)c3ccccc3C2=O)c2ncccc2c1OC (stereo unspecified)",
    "TGI": "> 100 µM"
  },
  {
    "compound": "O=C(Nc1ncc([N+](=O)[O-])s1)c1ccccc1O",
    "TGI": "> 92.2 µM"
  },
  {
    "compound": "COc1cc(NC(=O)c2ccccc2Nc2ccnc(C(F)(F)F)c2)cc(OC)c1OC",
    "TGI": "> 100 µM"
  },
  {
    "compound": "O=C1CSC(c2ccccc2O)N1c1nc2cc3sc(N4C(=O)CSC4c4ccccc4O)nc3cc2s1 (stereo unspecified)",
    "TGI": "> 100 µM"
  }
]

Note to self: TGI recorded for O=C1CC[C@@H](NC(=O)Cc2ccccc2)C(=O)N1 was > 100 µM

* * *

System: A498 renal
assay-procedure: NCI tumour cell line growth inhibition, 48 h
measured-attribute: TGI (µM)
API: value field is a number in µM; no unit string.

Solved cases below.
[
  {
    "compound": "CCc1ccc(/C=C/C(=O)C2CN(CC)CCC2(O)/C=C/c2ccc(CC)cc2)cc1 (centres undefined)",
    "TGI (µM)": 23.1
  },
  {
    "compound": "CCOC(=O)Nc1cc2c(c(N)n1)N=C(c1ccc3ccccc3c1)CN2",
    "TGI (µM)": 35.2
  },
  {
    "compound": "OCc1ccc(N(Cc2ccc(F)cc2)CC2CCC2)cc1Cl",
    "TGI (µM)": 0.34
  },
  {
    "compound": "c1ccc2c(c1)N=C(c1ccc3ccccc3c1)CC(c1cccc3ccccc13)S2 (centres undefined)",
    "TGI (µM)": 75.4
  },
  {
    "compound": "C#Cc1ccc(-n2c(/C=C/c3ccc4ccccc4c3)nc3ncccc3c2=O)cc1",
    "TGI (µM)": 5.86
  },
  {
    "compound": "Cc1c(O)c(Br)c(C)c(O)c1Br (tested in a mixture with another compound)",
    "TGI (µM)": 29
  }
]

Note to self: TGI recorded for COc1ccc(C(=C2C(=O)N(c3ccccc3)C(=O)C2=C(C)C)c2ccc(OC)cc2)cc1 was 16

Note to self: TGI recorded for Cc1ccc(S(=O)(=O)N/N=C2\CC(C)OC3=C2CCCCCC3)cc1 (centres undefined) was 29.7

* * *

Test system: UACC-257 melanoma
assay-procedure: NCI tumour cell line growth inhibition, 48 h
measured-attribute: TGI

Solved cases below.
[
  {
    "molecule": "O=C(/C=C/c1ccccc1)OCC1=C[C@@H](O)[C@@H]2C=CO[C@@H](OC3OC(CO)C(O)C(O)C3O)[C@H]12 (stereo not given in full)",
    "TGI": "> 100 µM"
  },
  {
    "molecule": "CNc1ncc2cc(-c3cc(NC(=O)NCCC(C)(C)C)c(F)cc3C)c(C)nc2n1",
    "TGI": "0.0555 µM"
  },
  {
    "molecule": "COCCOC1=C(Cl)C(=O)c2c(O)ccc(O)c2C1=O",
    "TGI": "4.85 µM"
  },
  {
    "molecule": "CCc1ccc(/C=C/C(=O)C2CN(CC)CCC2(O)/C=C/c2ccc(CC)cc2)cc1 (stereo not given)",
    "TGI": "19.3 µM"
  }
]

Note to self: TGI recorded for Nc1nc2ncn(CC(O)COC(=O)c3ccccc3)c2c(=O)[nH]1 (stereo not given) was > 100 µM

Note to self: TGI recorded for O=C(O)c1nc2ccccc2nc1NCc1ccc(F)cc1 was > 100 µM

Note to self: TGI recorded for COC(=O)C1(O)c2ccccc2N=C2C1CCN2C (stereo not given) was > 100 µM

Note to self: TGI recorded for CC(NC(=O)OC(C)(C)C)C(=O)NC(Cc1ccccc1)C(=O)NCC(=O)Oc1c(Cl)c(Cl)c(Cl)c(Cl)c1Cl (stereo not given) was 54.5 µM

Note to self: TGI recorded for Nc1c(Br)cc(-c2nc3ccccc3s2)cc1Br was > 100 µM

* * *

Tested on: HS 578T breast
assay-procedure: NCI tumour cell line growth inhibition, 48 h
Attribute: TGI

Solved cases below.
[
  {
    "compound": "Oc1cccc(-c2nc(-c3ccccc3)[nH]c2-c2ccncc2)c1",
    "TGI": "> 25 µM"
  },
  {
    "compound": "COc1cc(Cn2c(SCC(=O)Nc3ccc(Cl)cc3)nc3ccccc3c2=O)cc(OC)c1OC",
    "TGI": "40.3 µM"
  },
  {
    "compound": "CCc1ccc(/C=C/C(=O)C2CN(CC)CCC2(O)/C=C/c2ccc(CC)cc2)cc1 (stereo not given)",
    "TGI": "8.67 µM"
  },
  {
    "compound": "CC(=O)C(C=O)C(C)=O.CC(=O)CC(C)=O.CC(=O)CC(C)=O.[Ru]",
    "TGI": "4.2 µM"
  },
  {
    "compound": "Cc1ccc([N+](=O)[O-])cc1S(=O)(=O)Nc1ccc(C2=NOC(c3ccccc3O)C2)cc1 (stereo not given)",
    "TGI": "> 100 µM"
  }
]

Note to self: TGI recorded for COCCOC1=C(Cl)C(=O)c2c(O)ccc(O)c2C1=O was 8.34 µM

Note to self: TGI recorded for CCCCc1ccc(Nc2nc(Cl)c3ncn(C4CC(Oc5ccc(C)cc5)C(COc5ccc(C)cc5)O4)c3n2)cc1 (stereo not given) was > 100 µM

Note to self: TGI recorded for N=c1oc2ccccc2cc1C(=O)Nc1nccs1 was > 100 µM

Note to self: TGI recorded for O=C1OCCC[C@H]2O[C@@H](COCc3ccccc3)C[C@@H]12 was > 100 µM

Note to self: TGI recorded for CCN1C(=O)N(CC)C2C1NN=c1s/c(=C\c3ccc(OC)cc3)c(=O)n12 (stereo not given) was > 100 µM

* * *

System: NCI-H23 lung
assay-procedure: NCI tumour cell line growth inhibition, 48 h
measured-attribute: TGI

Note to self: TGI recorded for N#C/C(C(=O)Nc1ccc(Cl)cc1)=C(/N)N1CCOCC1 was > 100 µM

Note to self: TGI recorded for CSc1ccc(/C=C2\N=C(c3ccccc3)N(/N=C3\C(=O)Nc4ccccc43)C2=O)cc1 was > 100 µM

Note to self: TGI recorded for O=C1N(CN2CCOCC2)CN(CN2CCOCC2)C(=O)N1Cc1ccc(CN2C(=O)N(CN3CCOCC3)CN(CN3CCOCC3)C2=O)cc1 was > 100 µM

Note to self: TGI recorded for Cc1c2cc[n+](C)cc2c(C)c2c1oc1ccccc12 was 11.2 µM

Note to self: TGI recorded for CC(=O)OCC1OC(Oc2cc(C)c(O)cc2C/C=C(\C)CC/C=C(\C)C[C@@H](C=C(C)C)OC(C)=O)C(O)C(OC(C)=O)C1OC(C)=O (some centres not stated) was > 50 µM

* * *

Test system: M14 melanoma
assay-procedure: NCI tumour cell line growth inhibition, 48 h
Attribute: GI50

Solved cases below.
[
  {
    "molecule": "CCc1ccc2c(c1)C(=O)c1c-2n(CCCN)c(=O)c2cc([N+](=O)[O-])ccc12",
    "observed": "1560 nM"
  },
  {
    "molecule": "O=C1N=C(Nc2nc(-c3csc(NC4=NC(=O)/C(=C\\c5ccc(Cl)cc5)S4)n3)cs2)S/C1=C/c1ccc(Cl)cc1",
    "observed": "3030 nM"
  },
  {
    "molecule": "Fc1ccc(C2C3CCOc4c(ccc5ccccc45)C3=NN2c2ccccc2)cc1 (configuration not stated)",
    "observed": "> 100000 nM"
  },
  {
    "molecule": "CNCCN(C)Cc1cn[nH]c1-c1ccc(OC2CC(OCCC3CCOCC3)C2)cc1 (configuration not stated)",
    "observed": "> 66300 nM"
  },
  {
    "molecule": "Cc1[nH]n(-c2cccc(Cl)c2)c(=O)c1/C=C1\\C=c2ccccc2=CC1=O",
    "observed": "> 100000 nM"
  }
]

Note to self: GI50 recorded for COc1cc(-c2nn(-c3cccc(NC(=O)CCN4CCN(C)CC4)c3)cc2-c2ccncc2)ccc1Cl was 1090 nM

Note to self: GI50 recorded for CNCCNc1nc2ccccc2c2c(=O)c3cccc(C)c3sc12 was 853 nM

* * *

Tested on: IGROV1 ovarian
assay-procedure: NCI tumour cell line growth inhibition, 48 h
Binary classification by TGI, with 20 µM as an inclusive lower bound for Yes; all other cases are No.

Solved cases below.
[
  {
    "compound": "O=C(Nc1ncc([N+](=O)[O-])s1)c1ccccc1O",
    "class-name": "Yes"
  },
  {
    "compound": "Cc1cn2c(/C=C3/C(=O)Nc4ccc(Cl)cc43)c(C)nc2s1",
    "class-name": "Yes"
  }
]

Textbook exercise: given the entry COc1cc(-c2nn(-c3cccc(NC(=O)CCN4CCN(C)CC4)c3)cc2-c2ccncc2)ccc1Cl , state whether its TGI is greater than or equal to 20 µM. No
